target: T1, human CD4 on cells (SKW3 cells; human PBMCs) (human, UniProt P01730 26-458); assay: FACS confirmation, supernatant on SKW3 WT cells, anti-mFc 647; background gMFI 3300
T1 construct: whole, on cells; The SKW3 CD4 knockout cells served as the negative cell line; also called hCD4
MEASUREMENT NAME: gMFI, SKW3 WT anti-mFc 647

Give the value of gMFI, SKW3 WT anti-mFc 647 reported for the following: 75110_10N21A (antibody, V domains shown, Tested as non-clonal hybridoma supernatant from AlivaMab Mouse Kappa mice, detected with anti-mouse Fc and anti-human Kappa) VH: EVQLVESGGGLVQPGGSLRLSCAASGFTFSSYDMHWVRQVTGKGLEWVSTIGTAGDTYYPGSVKGRFTISRENAKNSLYLQMNSLRAGDTAVYYCARGGYYYYGMDVWGQGTTVTVSS VL: EIVLTQSPGTLSLSPGERATLSCRASQSFISSYLAWYQQKPGQAPRLLIYGASSRATGIPDRFSGSGSGTDFTLTISRLDPEDFAVYYCQQSGNSPFTFGPGTKVDVK 13000 gMFI
